Target: T1, TNFR2-His (Sino Biological, 10417-H08H, NP_001057.1 Met1-Asp257, with multi-histidine tag expressed on … (human, UniProt P20333 23-257))
T1 construct: range 1-257; Bought protein; also called recombinant human TNFR2 protein; TNFR2-His antigen; not shown: C-terminal multi-histidine tag
T1 sequence (looked up): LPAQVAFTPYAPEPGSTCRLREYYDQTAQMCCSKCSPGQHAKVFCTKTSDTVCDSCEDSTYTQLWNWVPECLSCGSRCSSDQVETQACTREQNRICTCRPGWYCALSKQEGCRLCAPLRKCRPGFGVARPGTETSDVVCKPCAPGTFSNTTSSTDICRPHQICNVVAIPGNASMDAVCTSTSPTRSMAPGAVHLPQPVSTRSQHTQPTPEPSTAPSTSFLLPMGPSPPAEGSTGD
Assay: ELISA, coated TNFR2-His
Below: a set of entries, each annotated with reported EC50.

| Binder | EC50 |
| --- | --- |
| 33C12huVH3 + huVL1(P07300) (antibody, V domains shown, Humanized 33C12) VH: EVQLVESGGGLVKPGGSLRLSCAASGFTFSDYTMSWVRQAPGKGLEWVATISTGGSYTYYADSVKGRFTISRDNAKNSLYLQMNSLRAEDTAVYYCARDGGYDGDYFDYWGQGTTVTVSS VL: ENVLTQSPATLSLSPGERATMSCRASSSVSSSYLHWYQQKPGQAPRLWIYRTSNLASGVPARFSGSGSGTDYTLTISRVEPEDFAVYYCQQYSGYPLTFGGGTKLEIK | 1.08 nM |
| human-mouse chimeric TNFR2 monoclonal antibody 33C12-hFc (antibody, V domains shown, Mouse V regions of clone 33C12 with human constant regions; also called human-mouse chimeric 33C12 antibody) VH: DVKLVESGGGLVKPGGSLKLSCAASGFTFSDYTMSWVRQTPEKRLEWVATISTGGSYTYYPDSVKGRFTISRDNAKNTLYLQMSSLKSEDTAMYYCTRDGGYDGDYFDYWGQGTTLTVSS VL: ENVLTQSPAIMSASPGEKVTMTCRASSSVSSSYLHWYQQKSGASPKLWIYRTSNLASGVPARFSGSGSGTSYSLTISSVEAEDAATYYCQQYSGYPLTFGAGTRLELK | 0.318 nM |
| 11G2huVH5 + huVL3(P07275) (antibody, V domains shown, Humanized 11G2) VH: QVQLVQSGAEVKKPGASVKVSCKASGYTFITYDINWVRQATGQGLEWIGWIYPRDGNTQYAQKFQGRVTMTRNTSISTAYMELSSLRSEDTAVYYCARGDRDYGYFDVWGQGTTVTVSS VL: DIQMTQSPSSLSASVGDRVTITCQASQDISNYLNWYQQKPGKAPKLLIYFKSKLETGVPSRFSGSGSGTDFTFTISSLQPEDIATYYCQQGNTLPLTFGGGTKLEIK | 0.149 nM |
| 11G2huVH3 + huVL3(P07273) (antibody, V domains shown, Humanized 11G2) VH: QVQLVQSGAEVKKPGASVKVSCKASGYTFITYDINWVRQATGQGLEWIGWIYPRDGNTQFNENFQGRVTMTRNTSISTAYMELSSLRSEDTAVYYCARGDRDYGYFDVWGQGTTVTVSS VL: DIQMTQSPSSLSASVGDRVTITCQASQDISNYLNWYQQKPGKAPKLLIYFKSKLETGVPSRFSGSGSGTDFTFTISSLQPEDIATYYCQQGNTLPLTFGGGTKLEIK | 0.521 nM |
| 11G2huVH4 + huVL2(P07269) (antibody, V domains shown, Humanized 11G2) VH: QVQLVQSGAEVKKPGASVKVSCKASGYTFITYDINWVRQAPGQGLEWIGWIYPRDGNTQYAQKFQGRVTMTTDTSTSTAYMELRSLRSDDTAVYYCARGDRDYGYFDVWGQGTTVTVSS VL: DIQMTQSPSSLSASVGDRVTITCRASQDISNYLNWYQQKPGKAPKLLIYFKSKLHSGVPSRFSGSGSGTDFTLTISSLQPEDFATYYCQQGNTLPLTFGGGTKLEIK | 0.364 nM |

The reported measurements were obtained from patent US20240392024A1.
